# PROTOCOL DESCRIPTION: reporter signal increase, D54 LucT cells – cell-based, luminescence, cherry pick, counter-screen for N-linked glycosylation inhibitor project, dose response (AID 624404)
# EXPERIMENTAL SETUP: D54 LucT luciferase reporter counterscreen, 24 h; series mostly up to 19.5 µM
Hit rate of the full screen: of about 1,800 compounds, about 710 (39%) were called active. Roughly 28% stayed inconclusive and do not appear here. Only a sample is shown. Measured potencies and affinities stand elsewhere.
PROPERTY MEASURED: outcome

- COMPOUND: "CCN(CC)S(=O)(=O)c1ccc(-c2nnc(SCC(=O)N3CCc4ccccc43)o2)cc1"
  OBS VALUE: "inactive"
- COMPOUND: "Nc1ccc(-c2cc(NC=O)c3ncc(-c4cccc(C(F)(F)F)c4)n3c2)cn1"
  OBS VALUE: "inactive"
- COMPOUND: "COc1ccc(F)cc1-c1cc(NC(C)=O)c2ncc(-c3cc(OC)c(OC)c(OC)c3)n2c1"
  OBS VALUE: "inactive"
- COMPOUND: "CN(C)C(=O)c1cccc(-c2cnc3c(NC=O)cc(-c4ccccc4Cl)cn23)c1"
  OBS VALUE: "inactive"

Q) Requested field: outcome. Item: CN(C)S(=O)(=O)c1ccc(N2CCCC2)c(C(=O)Nc2ccccc2)c1
A) inactive

Q) Requested field: outcome. Item: COc1ccc(S(=O)(=O)Nc2cc3c(cc2C(C)=O)OCO3)cc1
A) inactive
